Values were extracted from ChEMBL document CHEMBL3988442.

assayed system: Shiga toxin 2 (Escherichia coli O157:H7) (UniProt P09385+P09386)
experiment description: E. coli 0.157:H7 Shiga Toxin SOP - stx2 screening assay
Type: functional
Parameters: scale not given: direction of the effect not stated beside the values
condition parameters: 30 µM
# Percent Effect >= -20% gives MET, anything below gives NOT MET

{"compound": "CCOCC(O)CN1CCN(C(=O)c2ccc(OC)cc2F)CC1 (stereo not drawn)", "classification": "MET"}
{"compound": "c1cnnc(NCC2CN(CCN3CCCCC3)CCO2)c1 (stereo not drawn)", "classification": "MET"}
{"compound": "c1nc2c(c(C3CC3)n1)CCN(Cc1ccc3c(c1)OCO3)CC2", "classification": "NOT MET"}

Exam item: Hi team, for COc1ncccc1C(=O)N1CCN(C(=O)Cc2ccccn2)CC1 , is the recorded Percent Effect at or above -20%?
Marked response: NOT MET

Exam item: Hi team, for CN(Cc1ccco1)[C@@H]1CN(Cc2ccc(F)cc2)C[C@@H]2CCCO[C@@H]21 , is the recorded Percent Effect at or above -20%?
Marked response: MET

Exam item: Hi team, for Cc1oc(-c2ccco2)nc1CC(=O)N1CCC(C(O)C(F)(F)F)CC1 (stereo not drawn) , is the recorded Percent Effect at or above -20%?
Marked response: MET

Exam item: Hi team, for O=C(NCC1CC1)[C@H]1C[C@@H]2CCN(Cc3nccs3)C[C@@H]2O1 , is the recorded Percent Effect at or above -20%?
Marked response: MET

Exam item: Hi team, for O=C(NCc1cccnc1-n1cccn1)C1CC(=O)N(CC2CC2)C1 (stereo not drawn) , is the recorded Percent Effect at or above -20%?
Marked response: MET

Exam item: Hi team, for Cn1cc(-c2nc(CNCCn3cccn3)cs2)cn1 , is the recorded Percent Effect at or above -20%?
Marked response: NOT MET

Exam item: Hi team, for CC(C)[C@H](NC(=O)NC1CCS(=O)(=O)C1)C(=O)NCc1ccccc1Cl (stereo partly drawn) , is the recorded Percent Effect at or above -20%?
Marked response: NOT MET

Exam item: Hi team, for Cc1ncc2c(n1)CN(Cc1noc(C3CC3)n1)CC2 , is the recorded Percent Effect at or above -20%?
Marked response: NOT MET

Exam item: Hi team, for COc1ccnc(N2CCN(C(=O)NCc3ccc(C)s3)CC2)n1 , is the recorded Percent Effect at or above -20%?
Marked response: MET

Exam item: Hi team, for Cc1ccc([C@@H]2CN(S(=O)(=O)c3cccs3)C[C@H]2N(C)C)cc1 , is the recorded Percent Effect at or above -20%?
Marked response: MET

----------
assayed system: Aspartate--tRNA(Asp/Asn) ligase (Mycobacterium tuberculosis (strain ATCC 25618 / H37Rv)) (UniProt P9WFW3); also: in the data most compounds retested in dose-response had high values
Sequence (whole entry): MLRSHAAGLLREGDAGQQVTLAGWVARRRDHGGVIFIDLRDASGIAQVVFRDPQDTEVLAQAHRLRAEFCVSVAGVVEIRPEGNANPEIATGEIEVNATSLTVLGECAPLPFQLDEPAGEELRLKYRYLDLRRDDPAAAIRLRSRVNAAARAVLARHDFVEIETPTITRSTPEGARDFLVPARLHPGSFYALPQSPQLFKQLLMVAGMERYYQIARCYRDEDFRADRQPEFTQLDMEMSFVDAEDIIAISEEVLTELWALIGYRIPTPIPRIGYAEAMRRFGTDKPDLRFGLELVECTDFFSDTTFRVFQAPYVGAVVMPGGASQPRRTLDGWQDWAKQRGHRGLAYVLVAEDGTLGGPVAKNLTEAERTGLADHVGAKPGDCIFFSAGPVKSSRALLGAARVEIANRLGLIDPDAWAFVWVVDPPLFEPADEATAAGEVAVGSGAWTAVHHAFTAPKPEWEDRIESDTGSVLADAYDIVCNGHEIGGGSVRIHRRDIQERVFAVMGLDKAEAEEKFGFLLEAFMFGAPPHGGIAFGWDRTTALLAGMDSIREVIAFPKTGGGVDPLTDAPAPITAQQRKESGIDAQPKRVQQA
experiment description: Assay for Asp RNA synthetase-1 from Mycobacterium tuberculosis
Format: functional
Parameters: scale not given: direction of the effect not stated beside the values
condition parameters: 30 µM
value type: Percent Effect (%)
API: value field is a number in %; no unit string.

{"molecule": "CCCn1c(C)c(CC(=O)N(C)CCOC)c2c1CC(C)(C)CC2=O", "number": 1.4}
{"molecule": "CC(C)c1nn(C)c(N2CCOCC2)c1CNC(C)c1cccs1 (stereo not given)", "number": -0.59}
{"molecule": "CN(C)c1nccc(N2CCO[C@H]3CN(CC4CCOCC4)C[C@H]32)n1", "number": -1.41}

Exam item: Param item = COCC1c2c(cnn2C)CCN1Cc1ccc(F)cc1 (stereo not given) ; retrieve measured Percent Effect.
Marked response: 1.28

Exam item: Param item = COc1ccc(CN2CCC3(CC(=O)N(c4cncnc4)C3)C2)cc1 (stereo not given) ; retrieve measured Percent Effect.
Marked response: 0.382

Exam item: Param item = CC(C)Cc1noc(CN(C)C(=O)C2COc3ccccc3C2)n1 (stereo not given) ; retrieve measured Percent Effect.
Marked response: -1.81

Exam item: Param item = CCC(C)c1noc(C2CCN(C(=O)c3cccs3)CC2)n1 (stereo not given) ; retrieve measured Percent Effect.
Marked response: 4.84

Exam item: Param item = Cn1nnc2cc(C(=O)N3CCCC3Cc3ccccc3)ccc21 (stereo not given) ; retrieve measured Percent Effect.
Marked response: 2.04
